System: SK-MEL-1
Assay Overview: Antiproliferative activity against human SK-MEL-1 cells by MTT assay
Type: functional, cell-based
pIC50: −log10 of the molar value.
Experimental Endpoint: pIC50

Reported pIC50 for CCCCCCCCCCCCCCCCCC[C@@H](OC(C)=O)[C@@H](OC(C)=O)[C@H](COC(C)=O)NC(=O)[C@@H](OC(C)=O)[C@@H](CCCCCCCCCCCCCCCCC)OC(C)=O was 5.41

I. CCCCCCCCCCCCCCCCCC[C@@H](OC(C)=O)[C@@H](OC(C)=O)[C@H](COC(C)=O)NC(=O)[C@H](OC(C)=O)[C@@H](CCCCCCCCCCCCCCCCC)OC(C)=O
II. CCCCCCCCCCCCCCCCCC[C@@H](OC(C)=O)[C@@H](OC(C)=O)[C@H](COC(C)=O)NC(=O)[C@@H](OC(C)=O)[C@H](CCCCCCCCCCCCCCCCC)OC(C)=O
stdin: Hi there, can you help? I need to know whether I or II has lower measured pIC50. Your answer should be the label attached to the chosen record.
stdout: II
